# system under test: noradrenaline (NA) reuptake in synaptosomes (Rattus norvegicus)
# Construct: in synaptosomes as described in WO 97/16451 (NeuroSearch A/S)
# Sequence (Q63380 1-617): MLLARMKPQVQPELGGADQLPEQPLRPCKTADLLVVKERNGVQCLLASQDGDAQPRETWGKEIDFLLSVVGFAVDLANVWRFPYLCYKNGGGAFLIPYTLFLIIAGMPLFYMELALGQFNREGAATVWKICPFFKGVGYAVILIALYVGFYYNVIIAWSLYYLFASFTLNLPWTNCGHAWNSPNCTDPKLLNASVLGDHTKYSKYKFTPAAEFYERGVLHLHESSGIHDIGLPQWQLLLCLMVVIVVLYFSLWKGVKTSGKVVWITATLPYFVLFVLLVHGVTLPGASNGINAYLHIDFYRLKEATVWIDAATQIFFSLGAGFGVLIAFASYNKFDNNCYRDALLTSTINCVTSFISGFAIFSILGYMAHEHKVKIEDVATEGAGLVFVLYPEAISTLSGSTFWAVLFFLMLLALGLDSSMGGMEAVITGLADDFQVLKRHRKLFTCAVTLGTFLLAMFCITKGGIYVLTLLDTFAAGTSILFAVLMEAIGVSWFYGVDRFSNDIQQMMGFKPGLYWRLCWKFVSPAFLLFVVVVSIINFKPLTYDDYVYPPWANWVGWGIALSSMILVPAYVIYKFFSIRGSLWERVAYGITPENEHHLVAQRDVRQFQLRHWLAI
# procedure text: Inhibition of NA reuptake in synaptosomes
# applied conditions: 3H-NA, read-out: NA-uptake IC50
Below, each of the molecules is paired with its reported pIC50 value.
pIC50 here is simply -log10 of the concentration when that concentration is written in mol/L.

Example molecules with recorded pIC50:
O=C(Oc1ccc(Cl)c(Cl)c1)N1CC2CCCC(C1)N2 = 5.70
COc1ccc2cc(OC(=O)N3CC4CCCC(C3)N4C)ccc2c1 = 7.62

input: Reported pIC50, molecule CN1C2CCCC1CN(C(=O)Oc1ccc3ccc(=O)oc3c1)C2 : ____
output: 5.80

input: Need pIC50, item O=C(Oc1ccc2ccc(=O)oc2c1)N1CC2CCC(C1)N2
output: 6.21

----------
# system under test: serotonine (5-HT) reuptake in synaptosomes (Rattus norvegicus)
# Construct: in synaptosomes as described in WO 97/16451 (NeuroSearch A/S)
# Sequence (P31652 whole entry): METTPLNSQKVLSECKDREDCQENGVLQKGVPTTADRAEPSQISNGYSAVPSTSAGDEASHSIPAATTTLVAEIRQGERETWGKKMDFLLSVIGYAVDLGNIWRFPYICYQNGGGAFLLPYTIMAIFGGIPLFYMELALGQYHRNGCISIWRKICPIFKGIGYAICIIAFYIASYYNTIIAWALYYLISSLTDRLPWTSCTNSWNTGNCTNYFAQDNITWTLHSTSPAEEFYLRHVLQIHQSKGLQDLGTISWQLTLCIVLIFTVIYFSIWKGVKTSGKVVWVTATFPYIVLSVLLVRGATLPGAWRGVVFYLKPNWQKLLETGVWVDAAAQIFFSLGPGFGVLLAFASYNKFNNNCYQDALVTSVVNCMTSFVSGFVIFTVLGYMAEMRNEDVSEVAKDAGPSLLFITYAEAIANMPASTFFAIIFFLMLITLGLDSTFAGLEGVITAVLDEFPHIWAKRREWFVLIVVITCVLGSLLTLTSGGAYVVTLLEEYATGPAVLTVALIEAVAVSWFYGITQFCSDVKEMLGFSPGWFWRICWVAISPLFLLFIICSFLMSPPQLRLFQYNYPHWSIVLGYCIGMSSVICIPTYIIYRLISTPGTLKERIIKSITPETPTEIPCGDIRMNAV
# procedure text: Inhibition of 5-HT reuptake in synaptosomes
# applied conditions: 3H-5-HT, read-out: 5-HT-uptake IC50
readout: IC50 (nM)
The figure you give is taken to be in nM; do not add the unit.

Please review the entries below; each comes with its answer.
O=C(Oc1ccc2ccc(=O)oc2c1)N1CC2CCC(C1)N2 = 27
COc1ccc2cc(OC(=O)N3CC4CCCC(C3)N4C)ccc2c1 = 340
O=C(Oc1ccc(Cl)c(Cl)c1)N1CC2CCCC(C1)N2 = 7.8

We now examine a further compound.
input: For the compound CN1C2CCCC1CN(C(=O)Oc1ccc3ccc(=O)oc3c1)C2 , what IC50 is on record?
output: 40
